- targetOrTestSystem: AaDOP2 (Aedes aegypti, UniProt H6D5H2)
- Sequence (H6D5H2 1-476): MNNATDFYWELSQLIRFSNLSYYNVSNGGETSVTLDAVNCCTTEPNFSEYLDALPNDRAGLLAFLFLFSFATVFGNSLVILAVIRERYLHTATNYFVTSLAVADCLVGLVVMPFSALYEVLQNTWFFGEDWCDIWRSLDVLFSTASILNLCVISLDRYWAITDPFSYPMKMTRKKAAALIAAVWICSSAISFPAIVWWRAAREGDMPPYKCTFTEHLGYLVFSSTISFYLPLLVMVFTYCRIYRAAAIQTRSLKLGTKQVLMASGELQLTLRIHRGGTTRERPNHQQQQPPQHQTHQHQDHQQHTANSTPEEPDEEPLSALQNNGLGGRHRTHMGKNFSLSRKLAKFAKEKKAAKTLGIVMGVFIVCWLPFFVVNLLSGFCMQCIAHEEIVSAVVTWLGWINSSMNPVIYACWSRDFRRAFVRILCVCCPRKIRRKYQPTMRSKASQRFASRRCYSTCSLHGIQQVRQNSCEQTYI
- assayComment: cell-based
pIC50: −log10 of the molar value. Structures can show the parent of a compound that is named as a salt.
quantityKind: pIC50

[[record]]
compound = "Oc1ccc(/C=C/c2cc(O)cc(O)c2)cc1 [Compound 1048, Resveratrol, reference compound]"
relationsign = "≤"
testvalue = 5.00

[[record]]
compound = "CN(C)CCC=C1c2ccccc2CCc2ccccc21 [Compound 92, Amitriptyline hydrochloride]"
relationsign = "="
testvalue = 7.85

[[record]]
compound = "O=C(Nc1ccc([N+](=O)[O-])cc1Cl)c1cc(Cl)ccc1O [Compound 847, Niclosamide, reference compound]"
relationsign = "≤"
testvalue = 5.00

[[record]]
compound = "CN1CCc2cc(Cl)c(O)cc2[C@@H](c2ccccc2)C1 [Compound 446, R(+)-SCH-23390 hydrochloride]"
relationsign = "="
testvalue = 5.80

[[record]]
compound = "OCCN1CCN(CC/C=C2/c3ccccc3Sc3ccc(C(F)(F)F)cc32)CC1 [Compound 541, cis-(Z)-Flupenthixol dihydrochloride, reference compound]"
relationsign = "="
testvalue = 7.70

[[record]]
compound = "Oc1cc(O)cc(/C=C/c2ccc(O)c(O)c2)c1 [Compound 916, Piceatannol, reference compound]"
relationsign = "≤"
testvalue = 5.00

